// values below are reported Brain concentration after 120 minutes
# test.summary: Blood Brain Barrier penetration (brain-to-plasma distribution)
# Type: in vivo
# experimental.conditions: male CD mice, subcutaneous 10 mg/kg, 120 min

compound="C[C@@H]1CN(Cc2ncccn2)C[C@H]1c1cn2c(C3CCOCC3)ncc2c(=O)[nH]1 (single isomer, unassigned) [Compound (P3, enantiomer 1)]" reported_result="120 min.: 7 ng/mL"
compound=O=c1[nH]c(CN2CC(OCc3ccc(F)cc3)C2)nn2c(C3CCOCC3)ncc12 reported_result="120 min.: 15 ng/mL"

Please look at the following compound next.
query: Name the recorded Brain concentration after 120 minutes of the item O=c1[nH]c(CN2CC(Oc3ccncc3)C2)cn2c(-c3ccc(F)cc3)ncc12 [Compound (P1)] in your answer.
result: 120 min.: 7 ng/mL

* * *

Items are presented alongside their recorded Kp at 2 h.
# test.summary: Blood Brain Barrier penetration (brain-to-plasma distribution)
# Format: in vivo
# experimental.conditions: mouse, brain/plasma, sc; male CD mice, subcutaneous 10 mg/kg, 120 min; read-out: Brain/Plasma ratio after 120 minutes
Note: the reply should be a number with no unit written.

compound="O=c1[nH]c(CN2CC(Oc3ccncc3)C2)cn2c(-c3ccc(F)cc3)ncc12 [Compound (P1)]" reported_result=0.08

query: Fill in reported Kp at 2 h for this entry: C[C@@H]1CN(Cc2ncccn2)C[C@H]1c1cn2c(C3CCOCC3)ncc2c(=O)[nH]1 (single isomer, unassigned) [Compound (P3, enantiomer 1)]
result: 0.03
